These entries and their values trace back to ChEMBL document CHEMBL4689842.

# Tested on: Fibroblast
# assay-explanation: Multiplex assay against human fibroblast
# Type: toxicity, cell-based
# condition-parameters: 24 h, 10 µM, compound concentration 10 uM, replicate 1
measurement-name: Population Tubulin-Different-Phenotype (%)

compound	value-reported
COc1cc2ncn(-c3cc(OCc4ccccc4C(F)(F)F)c(C(N)=O)s3)c2cc1OC [GW843682X]	94%
CCc1ccc(OCc2ccccc2C(=O)Nc2ccc3nc(C)cc(N)c3c2)cc1.Cl	97%
CC(C)OC(=O)N1CCC(Oc2ncnc3c2cnn3-c2ccc(S(C)(=O)=O)cc2F)CC1	72%
COc1ccccc1CN[C@H]1C2CCN(CC2)[C@H]1C(c1ccccc1)c1ccccc1	86%
CC1=C(C(=O)Nc2cc3cn[nH]c3cc2F)C(c2ccc(C(F)(F)F)cc2)CC(=O)N1 (stereo not drawn)	40%
O=c1cc(N2CCOCC2)oc2c(-c3cccc4c3sc3ccccc34)cccc12	95%
CN1CCN(Cc2ccc(Nc3ncc(Cl)c(Nc4ccccc4S(=O)(=O)N(C)C)n3)cc2)CC1	61%
C=CC(=O)Nc1cccc(Oc2nc(Nc3ccc(N4CCN(C)CC4)cc3OC)ncc2Cl)c1	10%
CC(C)NC(=O)N1CC[C@H](NC2=Nc3cc(F)ccc3N(CC(F)F)c3ccc(Cl)cc32)C1	92%
CCCSc1nc(N[C@@H]2C[C@H]2c2ccc(F)c(F)c2)c2nnn([C@@H]3C[C@H](OCCO)[C@@H](O)[C@H]3O)c2n1	94%
CC(C)(C)NC[C@H](O)COc1nsnc1N1CCOCC1	58%
CC(C)Oc1ccccc1C(=O)Nc1ccccc1C(=O)Nc1cccc(S(=O)(=O)C(F)(F)F)c1	23%
C=CC(=O)Nc1cccc(Sc2nc(Nc3ccc(N4CCN(C)CC4)cc3)ncc2Cl)c1	11%
COc1cc(Nc2nccc(-c3cnn4nc(OC)ccc34)n2)cc(C(F)(F)F)c1	42%
C[C@]12CC[C@@H]3c4ccc(O)cc4CC[C@H]3[C@@H]1CC[C@@H]2O	35%
Cl.O=C(O)c1cc(-c2ccc(C3CCNCC3)cc2)c2ccc(-c3ccc(C(F)(F)F)cc3)cc2c1	62%
Cc1ccc2c(c1)c1c(n2CCc2ccc(C)nc2)CCN(C)C1 [LATREPIRDINE]	82%
Cc1c[nH]c2nccc(Oc3c(F)cc(Nc4cc(Cl)nc(N)n4)cc3F)c12	33%

###

# Tested on: U2OS
# assay-explanation: Multiplex assay against U2OS
# Type: toxicity, cell-based
# condition-parameters: human, 12 h, 1 µM, compound concentration 1 uM, replicate 2

compound	result-unit	Population Normal (%)
Cc1ccc(C)c(Oc2ccncc2C(=O)N2CCN(C3CC3)c3ccccc32)c1	%	89
CC(C)CC(=O)Nc1[nH]nc2c1CN(C(=O)C1CCN(C)CC1)C2(C)C	%	88
C[C@]12CC[C@@H]3c4ccc(O)cc4CC[C@H]3[C@@H]1CC[C@@H]2O	%	94
C=CC(=O)Nc1ccc2[nH]c(=O)n(C3CCN(Cc4ccc(-c5nc6cc[nH]c(=O)c6cc5-c5ccccc5)cc4)CC3)c2c1	%	85
COc1cc2ncn(-c3cc(OCc4ccccc4C(F)(F)F)c(C(N)=O)s3)c2cc1OC [GW843682X]	%	89
COc1ccc(-c2ccc3ncc4c(c3c2)n(-c2ccc(N3CCNCC3)c(C(F)(F)F)c2)c(=O)n4C)cn1.O=C(O)/C=C\C(=O)O	%	82
CC1=C(C(=O)Nc2cc3cn[nH]c3cc2F)C(c2ccc(C(F)(F)F)cc2)CC(=O)N1 (configuration not stated)	%	89
Cc1ccccc1C(c1ccccc1C)N1C2CCC1CC(O)(c1ccccc1)C2 (configuration not stated)	%	90
C=CC(=O)Nc1cccc(Oc2nc(Nc3ccc(N4CCN(C)CC4)cc3OC)ncc2Cl)c1	%	86
CCc1ccc(OCc2ccccc2C(=O)Nc2ccc3nc(C)cc(N)c3c2)cc1.Cl	%	84
CC(C)Oc1ccccc1C(=O)Nc1ccccc1C(=O)Nc1cccc(S(=O)(=O)C(F)(F)F)c1	%	94
CCCSc1nc(N[C@@H]2C[C@H]2c2ccc(F)c(F)c2)c2nnn([C@@H]3C[C@H](OCCO)[C@@H](O)[C@H]3O)c2n1	%	94
Cl.O=C(O)c1cc(-c2ccc(C3CCNCC3)cc2)c2ccc(-c3ccc(C(F)(F)F)cc3)cc2c1	%	94
O=c1[nH]c2ccccc2n1C1CCN(Cc2ccc(-c3[nH]c4cc5ncnc5cc4nc3-c3ccccc3)cc2)CC1	%	91
Cc1ccc2c(c1)c1c(n2CCc2ccc(C)nc2)CCN(C)C1 [LATREPIRDINE]	%	83
C=CC(=O)Nc1cccc(Sc2nc(Nc3ccc(N4CCN(C)CC4)cc3)ncc2Cl)c1	%	85
CC(C)NC(=O)N1CC[C@H](NC2=Nc3cc(F)ccc3N(CC(F)F)c3ccc(Cl)cc32)C1	%	90

###

Listing: Growth Rate of selected compounds
# Tested on: HEK-293T
# assay-explanation: Incucyte cell viability with HEK293T; further: filed as whole numbers so only -1 and 0 and 1 occur
# Format: toxicity, cell-based
# condition-parameters: human, 6 h, 10 µM, compound concentration 10 uM, replicate number 1, timepoint 6 hours

compound	measured-target	Growth Rate
O=C(O)C1CN(Cc2ccc(OCc3ccc(Cl)c(Cl)c3)cc2)C1	HEK-293T	0
COc1cc2c(cc1NS(=O)(=O)c1ccc(Br)cc1C)n(C)c(=O)n2C	HEK-293T	0
COc1ccc(S(=O)(=O)N2c3ccc(Cl)cc3[C@](O)(c3ccccc3Cl)[C@@H]2C(=O)N2CCC[C@H]2C(N)=O)cc1OC	HEK-293T	0
CC1(C)CCC(C)(C)c2cc(C(=O)Nc3ccc(C(=O)O)cc3)ccc21	HEK-293T	1
CCOC(=O)CCNc1cc(N2CCc3ccccc3CC2)nc(-c2cccnc2)n1	HEK-293T	0
CNC(=O)c1ccc(Nc2ncc(C(F)(F)F)c(NCc3nccnc3N(C)S(C)(=O)=O)n2)cc1	HEK-293T	0
COc1ccc(-c2ccc3cc(C(=O)O)ccc3c2)cc1C12CC3CC(CC(C3)C1)C2	HEK-293T	1
CC(C)CC(=O)Nc1[nH]nc2c1CN(C(=O)C1CCN(C)CC1)C2(C)C	HEK-293T	0
C[C@]1(O)C[C@@H](c2nc(-c3ccc4ccc(-c5ccccc5)nc4c3)c3c(N)nccn32)C1	HEK-293T	0
CCc1ccc(OCc2ccccc2C(=O)Nc2ccc3nc(C)cc(N)c3c2)cc1.Cl	HEK-293T	0
CN1C[C@H](Nc2cnn(C)c(=O)c2Br)C[C@H](c2ccccc2)C1	HEK-293T	0
O=c1[nH]c2ccccc2n1C1CCN(Cc2ccc(-c3[nH]c4cc5ncnc5cc4nc3-c3ccccc3)cc2)CC1	HEK-293T	0
COc1ccc(S(=O)(=O)c2cc(OC)ccc2S(=O)(=O)c2ccc([C@H](C)NS(C)(=O)=O)cc2)cc1	HEK-293T	0
CCCOc1ccc([C@H]2[C@H](C(=O)O)[C@@H](c3ccc4c(c3)OCO4)CN2CC(=O)Nc2c(CC)cccc2CC)cc1	HEK-293T	0
Cl.Cl.Cl.c1ccc(N2CCN(Cc3nc4ccccc4[nH]3)CC2)nc1	HEK-293T	1
CNC(=O)Nc1ccc(-c2nc(N3CC4CCC(C3)O4)c3cnn(C4CCC5(CC4)OCCO5)c3n2)cc1	HEK-293T	0
C=CC(=O)Nc1ccc2[nH]c(=O)n(C3CCN(Cc4ccc(-c5nc6cc[nH]c(=O)c6cc5-c5ccccc5)cc4)CC3)c2c1	HEK-293T	0
C[C@]12CC[C@@H]3c4ccc(O)cc4CC[C@H]3[C@@H]1CC[C@@H]2O	HEK-293T	0
CC(C)N(CCCNC(=O)Nc1ccc(C(C)(C)C)cc1)C[C@H]1O[C@@H](n2cc(Br)c3c(N)ncnc32)[C@H](O)[C@@H]1O	HEK-293T	0
CC(C)Oc1ccccc1C(=O)Nc1ccccc1C(=O)Nc1cccc(S(=O)(=O)C(F)(F)F)c1	HEK-293T	0
C[C@]1(C(=O)N(CCCC(=O)O)Cc2cccc(Cl)c2)CCN1C(=O)c1csc2ccccc12	HEK-293T	1
COC(=O)C(Cc1ccc(OCCn2c(=O)sc3cc(C(=O)c4ccccc4)ccc32)cc1)C(=O)OC	HEK-293T	0
CN(C)C(=O)/C(C#N)=C/c1ccc(-c2nc3cnc4c(ccn4C)c3n2C2CCCCC2)o1	HEK-293T	0
CCNC(=O)c1cc2c(N3CCOC[C@@H]3C)ccnc2n1C	HEK-293T	0
O=C(Nc1ccc(Oc2ccc(F)cc2)cc1)N1CCc2ncccc2[C@H]1c1ccc(F)cc1	HEK-293T	0
O=c1cc(N2CCOCC2)oc2c(-c3cccc4c3sc3ccccc34)cccc12	HEK-293T	0
Cc1cc(NC(=O)c2cccc(S(F)(F)(F)(F)F)c2)cc(-n2ccn3nc(-c4cccnc4)cc23)c1	HEK-293T	0
Cc1cc(C(C)(C)C)c(O)c(C)c1CC1=NCCN1.Cl [OXYMETAZOLINE HYDROCHLORIDE]	HEK-293T	1
Nc1ncnc2c1ccn2[C@@H]1O[C@H]([C@H](O)c2ccccc2)[C@@H](O)[C@H]1O	HEK-293T	1
Cl.Clc1cccc(COc2cncc(N3CCNCC3)n2)c1	HEK-293T	0
COc1cc2ncnc(Nc3ccc(F)c(Cl)c3)c2cc1OCCCN1CCOCC1	HEK-293T	0
O=C(Cc1ccccc1)Nc1nc2ccc(Cl)cc2c2nc(-c3ccco3)nn12	HEK-293T	0
CCOc1cn(-c2ccc(F)cc2C)nc1C(=O)Nc1ccc(Oc2ccnc3cc(OC)c(OC)cc23)c(F)c1	HEK-293T	1
Cc1ccc2c(c1)c1c(n2CCc2ccc(C)nc2)CCN(C)C1 [LATREPIRDINE]	HEK-293T	0
CC1CCN(CC[C@H]2CCCN2S(=O)(=O)c2cccc(O)c2)CC1.Cl	HEK-293T	1
CCc1nn(CCCN2CCN(c3cccc(Cl)c3)CC2)c(=O)n1CCOc1ccccc1.Cl [NEFAZODONE HYDROCHLORIDE]	HEK-293T	0
